- assay: Rat plasma hydrolytic study
- test.conditions: male, Wistar, rat, rat plasma (80% in phosphate buffer), pH 7.4
measurement.kind: half-life at 500 μM (min)
Form entry: value (min) — number only.

COC(=O)Cc1ccccc1 [Compound 8, methyl 2-phenylacetate] : 3

Exam item: Which half-life at 500 μM is listed for COC(=O)c1ccccc1 [Compound 1, methyl benzoate] ?
Marked response: 36

Exam item: Now the compound CCCCOC(=O)c1ccccc1 [Compound 4, n-butyl benzoate]
Marked response: 10

Exam item: Now the compound CCOC(=O)c1ccc(N)cc1 [Compound 13, ethyl 4-aminobenzoate, reference compound]
Marked response: 13

Exam item: Now the compound CCOC(=O)c1ccc(Br)cc1 [Compound 12, ethyl 4-bromobenzoate]
Marked response: 12
